tested on: Kuramochi cell line; test: Cell Viability Assay (Cell Titer-Glo, 7 days); type: cell-based; details: 168 h, Kuramochi cells, 7 days incubation, read-out: PARG Cell viability (IC50)
pIC50: −log10 of the molar value.
Give measured pIC50 for each item. Keep answers brief.

Report pIC50 for CN(C)C1CCN(c2ncnc3c2c2ccc(S(=O)(=O)NC4(C#N)CC4)cc2n3-c2nnc(C(F)F)s2)C[C@@H]1F (stereo partly shown) tested on Kuramochi cell line.
> 7.00

Then what about the compound "N#CC1(NS(=O)(=O)c2ccc3c4c(N5CCN(c6ccccn6)CC5)ncnc4n(-c4nnc(C(F)F)s4)c3c2)CC1" ?
6.00 to 7.00

Follow-up item: "C[C@H]1CN(c2ncnc3c2c2ccc(S(=O)(=O)NC4(C#N)CC4)cc2n3-c2nnc(C(F)F)s2)CCN1CC1CC1"
> 7.00

Now consider "CCS(=O)(=O)N1CCC(c2ncnc3c2c2ccc(S(=O)(=O)NC4(C#N)CC4)cc2n3-c2nnc(C(F)F)s2)CC1" .
> 7.00

Subsequent entry: "CC(C)C(=O)N1CC=C(c2ncnc3c2c2ccc(S(=O)(=O)NC4(C#N)CC4)cc2n3-c2nnc(C(F)F)s2)CC1"
> 7.00

What about "CC(C)C(=O)N1C2CCC1CN(c1ncnc3c1c1ccc(S(=O)(=O)NC4(C#N)CC4)cc1n3-c1nnc(C(F)F)s1)C2" ?
6.00 to 7.00

Follow-up entry: "N#CC1(NS(=O)(=O)c2ccc3c4c(N5CCC6(CCOC6)CC5)ncnc4n(-c4nnc(C(F)F)s4)c3c2)CC1"
> 7.00

Cool, now "N#CC1(NS(=O)(=O)c2ccc3c4c(N5C[C@H]6C[C@@H]5CO6)ncnc4n(-c4nnc(C(F)F)s4)c3c2)CC1"
> 7.00

# repeat for "CO[C@H]1CCN(c2ncnc3c2c2ccc(S(=O)(=O)NC4(C#N)CC4)cc2n3-c2nnc(C(F)F)s2)C[C@@H]1F"
> 7.00

What about this compound? "CC(C)C(=O)N1CCN(c2ncnc3c2c2ccc(S(=O)(=O)NC4(C#N)CC4)cc2n3-c2nnc(C(F)F)s2)C[C@@H]1CO"
> 7.00

Then this compound: "CN(CCO)C(=O)N1CCC(c2ncnc3c2c2ccc(S(=O)(=O)NC4(C#N)CC4)cc2n3-c2nnc(C(F)F)s2)CC1"
6.00 to 7.00

Then N#CC1(NS(=O)(=O)c2ccc3c4c(N5CCN(C(=O)C6CC6(F)F)CC5)ncnc4n(-c4nnc(C(F)F)s4)c3c2)CC1 (stereo not shown) ?
> 7.00

Please answer likewise for "N#CC1(NS(=O)(=O)c2ccc3c4c(N5CCN6C(=O)COC[C@H]6C5)ncnc4n(-c4nnc(C(F)F)s4)c3c2)CC1"
> 7.00

====

tested on: Kuramochi cell line; test: Cell Viability Assay (Cell Titer-Glo, 7 days); assay type: cell-based; settings: 168 h, Kuramochi cells, 7 days incubation, read-out: PARG Cell viability (IC50)
pIC50: −log10 of the molar value.
test-readout: pIC50

So what's the measured pIC50 for this one? "CCCN1CCN(c2ncnc3c2c2ccc(S(=O)(=O)NC4(C#N)CC4)cc2n3-c2nnc(C(F)F)s2)C[C@@H]1C"
> 7.00

Then what about the compound "C[C@H]1CN(c2ncnc3c2c2cc(F)c(S(=O)(=O)NC4(C#N)CC4)cc2n3-c2nnc(C(F)F)s2)CCN1C(=O)N(C)C" ?
> 7.00

Again, but for "N#CC1(NS(=O)(=O)c2ccc3c4c(C5CCN(C(=O)C6(O)CC6)CC5)ncnc4n(-c4nnc(C(F)F)s4)c3c2)CC1"
6.00 to 7.00

Then this compound: N#CC1(NS(=O)(=O)c2ccc3c4c(N5CCN(C(=O)C6CCOC6)CC5)ncnc4n(-c4nnc(C(F)F)s4)c3c2)CC1 (stereo not shown)
> 7.00

Also, "C[C@H](N)C(=O)N1CCC(c2ncnc3c2c2ccc(S(=O)(=O)NC4(C#N)CC4)cc2n3-c2nnc(C(F)F)s2)CC1" please.
6.00 to 7.00

Another: "CC(C)C(=O)N1CC=C(c2ncnc3c2c2cc(F)c(S(=O)(=O)NC4(C)CC4)cc2n3-c2nnc(C(F)F)s2)CC1"
> 7.00

Another compound to check: "N#CC1(NS(=O)(=O)c2ccc3c4c(N5CCC6(CCCO6)CC5)ncnc4n(-c4nnc(C(F)F)s4)c3c2)CC1"
> 7.00

"C[C@@H]1COCCN1c1ncnc2c1c1ccc(S(=O)(=O)NC3(C#N)CC3)cc1n2-c1nnc(C(F)F)s1" , same question.
> 7.00

Next up: "N#CC1(NS(=O)(=O)c2ccc3c4c(N5C[C@H]6COC[C@H]6C5)ncnc4n(-c4nnc(C(F)F)s4)c3c2)CC1"
> 7.00

"N#CC1(NS(=O)(=O)c2ccc3c4c(N5CCN(C(=O)C6CC6)CC5)ncnc4n(-c4nnc(C(F)(F)F)s4)c3c2)CC1" ?
6.00 to 7.00

// same read-out, input: "N#CC1(NS(=O)(=O)c2ccc3c4c(N5CCS(=O)(=O)CC5)ncnc4n(-c4nnc(C(F)F)s4)c3c2)CC1"
6.00 to 7.00

Now try CCN(CC)C1CCN(c2ncnc3c2c2ccc(S(=O)(=O)NC4(C#N)CC4)cc2n3-c2nnc(C(F)F)s2)C[C@@H]1F (stereo partly shown) .
> 7.00

Can you handle "CN1CCC[C@@H]1C(=O)N1CCC(c2ncnc3c2c2ccc(S(=O)(=O)NC4(C#N)CC4)cc2n3-c2nnc(C(F)F)s2)CC1" next?
6.00 to 7.00

====

Consider the following molecules; for each one, report its IC50.
test system: Kuramochi cell line; test: Cell Viability Assay (Cell Titer-Glo, 7 days); type: cell-based; details: 168 h, Kuramochi cells, 7 days incubation, read-out: PARG Cell viability (IC50)

# input molecule: CN(C)C(=O)N1CC=C(c2ccnc3c2c2ccc(S(=O)(=O)NC4(C)CC4)cc2n3-c2nnc(C(F)F)s2)CC1 [Example 194] ; wanted: its IC50
100 to 1000 nM

Queued: CN(C)C(=O)C1CCN(c2ncnc3c2c2ccc(S(=O)(=O)NC4(C#N)CC4)cc2n3-c2nnc(C(F)F)s2)CC1 [Example 179]
< 100 nM

Please do the same for CO[C@@H]1CCN(c2ncnc3c2c2ccc(S(=O)(=O)NC4(C#N)CC4)cc2n3-c2nnc(C(F)F)s2)C[C@@H]1F [Example 171] as well.
< 100 nM

Then this molecule: N#CC1(NS(=O)(=O)c2ccc3c4c(N5CCC(N6CCOCC6)[C@@H](F)C5)ncnc4n(-c4nnc(C(F)F)s4)c3c2)CC1 (stereo partly shown) [Example 209]
< 100 nM

Now consider C[C@H]1CN(c2ncnc3c2c2ccc(S(=O)(=O)NC4(C#N)CC4)cc2n3-c2nnc(C(F)F)s2)CCN1C(=O)N(C)C [Example 37] and answer again.
< 100 nM

Next record, please: N#CC1(NS(=O)(=O)c2ccc3c4c(N5CCC(O)CC5)ncnc4n(-c4nnc(C(F)F)s4)c3c2)CC1 [Example 189]
< 100 nM

Follow-up item: N#CC1(NS(=O)(=O)c2ccc3c4c(N5CCN(c6ncccn6)CC5)ncnc4n(-c4nnc(C(F)F)s4)c3c2)CC1 [Example 18]
100 to 1000 nM

Field entry: C[C@H]1CN(c2ncnc3c2c2ccc(S(=O)(=O)NC4(C#N)CC4)cc2n3-c2nnc(C(F)F)s2)CCN1C [Example 98]
< 100 nM

Proceed to CO[C@@H](C)C(=O)N1CCC(c2ncnc3c2c2ccc(S(=O)(=O)NC4(C)CC4)cc2n3-c2nnc(C(F)F)s2)CC1 [Example 96]
< 100 nM

// repeat for N#CC1(NS(=O)(=O)c2ccc3c4c(C5CCN(C(=O)[C@H]6CCCO6)CC5)ncnc4n(-c4nnc(C(F)F)s4)c3c2)CC1 [Example 110] and report
< 100 nM

Follow-up item: C[C@H]1CN(c2ncnc3c2c2ccc(S(=O)(=O)NC4(C#N)CC4)cc2n3-c2nnc(C(F)F)s2)CCN1CC#N [Example 205]
< 100 nM

How about CO[C@H]1CCN(c2ncnc3c2c2ccc(S(=O)(=O)NC4(C#N)CC4)cc2n3-c2nnc(C(F)F)s2)C[C@H]1F [Example 173] ?
< 100 nM

Item: CN(C)C(=O)N1CCC(c2ncnc3c2c2cc(F)c(S(=O)(=O)NC4(C#N)CC4)cc2n3-c2nnc(C(F)F)s2)CC1 [Example 89]
< 100 nM

====

system: Kuramochi cell line; experiment: Cell Viability Assay (Cell Titer-Glo, 7 days); type: cell-based; details: 168 h, Kuramochi cells, 7 days incubation, read-out: PARG Cell viability (IC50)
pIC50: −log10 of the molar value.
test-readout: pIC50

Can you look up pIC50 on Kuramochi cell line for "C[C@@H]1CN(C(=O)N(C)C)CCN1c1ncnc2c1c1ccc(S(=O)(=O)NC3(C#N)CC3)cc1n2-c1nnc(C(F)F)s1" ?
> 7.00

How about this compound: "N#CC1(NS(=O)(=O)c2ccc3c4c(C5CCN(C(=O)[C@H]6CCOC6)CC5)ncnc4n(-c4nnc(C(F)F)s4)c3c2)CC1"
> 7.00

Now the same for "C[C@@H](O)C(=O)N1CCC(c2ncnc3c2c2ccc(S(=O)(=O)NC4(C#N)CC4)cc2n3-c2nnc(C(F)F)s2)CC1"
> 7.00

Try this compound next: "CN1CC=C(c2ncnc3c2c2ccc(S(=O)(=O)NC4(C#N)CC4)cc2n3-c2nnc(C(F)F)s2)CC1"
> 7.00

Proceed to "CC(C)C(=O)N1[C@H](C)CN(c2ncnc3c2c2ccc(S(=O)(=O)NC4(C)CC4)cc2n3-c2nnc(C(F)F)s2)C[C@@H]1C"
> 7.00

Please give the result for "N#CC1(NS(=O)(=O)c2ccc3c4c(N5C[C@@H]6C[C@H]5CO6)ncnc4n(-c4nnc(C(F)F)s4)c3c2)CC1" too.
> 7.00

Okay, and "CC1(C(=O)N2CCN(c3ncnc4c3c3ccc(S(=O)(=O)NC5(C#N)CC5)cc3n4-c3nnc(C(F)F)s3)CC2)CC1" ?
> 7.00

// repeat for "C[C@@H]1CN(c2ncnc3c2c2ccc(S(=O)(=O)NC4(C#N)CC4)cc2n3-c2nnc(C(F)F)s2)CCO1" and report
6.00 to 7.00

Item: "CC1(NS(=O)(=O)c2ccc3c4c(C5CCN(C(=O)N6CC[C@H](O)C6)CC5)ncnc4n(-c4nnc(C(F)F)s4)c3c2)CC1"
> 7.00

Again, but for "N#CC1(NS(=O)(=O)c2ccc3c4c(N5CCN(C(=O)C6CCC6)CC5)ncnc4n(-c4nnc(C(F)F)s4)c3c2)CC1"
6.00 to 7.00

Now consider CC(C)[S+]([O-])N1CCN(c2ncnc3c2c2ccc(S(=O)(=O)NC4(C#N)CC4)cc2n3-c2nnc(C(F)F)s2)CC1 (stereo not shown) .
> 7.00

Next compound: "N#CC1(NS(=O)(=O)c2ccc3c4c(N5CCN(C(=O)C6COC6)CC5)ncnc4n(-c4nnc(C(F)F)s4)c3c2)CC1"
> 7.00

Similarly, "CO[C@@H](C)C(=O)N1CCC(c2ncnc3c2c2ccc(S(=O)(=O)NC4(C#N)CC4)cc2n3-c2nnc(C(F)F)s2)CC1" ?
> 7.00
